- Subject of test: FVIII (Homo sapiens, UniProt P00451)
- Construct: Full length recombinant human FVIII (Baxter Biosciences, Carlsbad, Calif.) was obtained as a gift
- Sequence (P00451 20-2351): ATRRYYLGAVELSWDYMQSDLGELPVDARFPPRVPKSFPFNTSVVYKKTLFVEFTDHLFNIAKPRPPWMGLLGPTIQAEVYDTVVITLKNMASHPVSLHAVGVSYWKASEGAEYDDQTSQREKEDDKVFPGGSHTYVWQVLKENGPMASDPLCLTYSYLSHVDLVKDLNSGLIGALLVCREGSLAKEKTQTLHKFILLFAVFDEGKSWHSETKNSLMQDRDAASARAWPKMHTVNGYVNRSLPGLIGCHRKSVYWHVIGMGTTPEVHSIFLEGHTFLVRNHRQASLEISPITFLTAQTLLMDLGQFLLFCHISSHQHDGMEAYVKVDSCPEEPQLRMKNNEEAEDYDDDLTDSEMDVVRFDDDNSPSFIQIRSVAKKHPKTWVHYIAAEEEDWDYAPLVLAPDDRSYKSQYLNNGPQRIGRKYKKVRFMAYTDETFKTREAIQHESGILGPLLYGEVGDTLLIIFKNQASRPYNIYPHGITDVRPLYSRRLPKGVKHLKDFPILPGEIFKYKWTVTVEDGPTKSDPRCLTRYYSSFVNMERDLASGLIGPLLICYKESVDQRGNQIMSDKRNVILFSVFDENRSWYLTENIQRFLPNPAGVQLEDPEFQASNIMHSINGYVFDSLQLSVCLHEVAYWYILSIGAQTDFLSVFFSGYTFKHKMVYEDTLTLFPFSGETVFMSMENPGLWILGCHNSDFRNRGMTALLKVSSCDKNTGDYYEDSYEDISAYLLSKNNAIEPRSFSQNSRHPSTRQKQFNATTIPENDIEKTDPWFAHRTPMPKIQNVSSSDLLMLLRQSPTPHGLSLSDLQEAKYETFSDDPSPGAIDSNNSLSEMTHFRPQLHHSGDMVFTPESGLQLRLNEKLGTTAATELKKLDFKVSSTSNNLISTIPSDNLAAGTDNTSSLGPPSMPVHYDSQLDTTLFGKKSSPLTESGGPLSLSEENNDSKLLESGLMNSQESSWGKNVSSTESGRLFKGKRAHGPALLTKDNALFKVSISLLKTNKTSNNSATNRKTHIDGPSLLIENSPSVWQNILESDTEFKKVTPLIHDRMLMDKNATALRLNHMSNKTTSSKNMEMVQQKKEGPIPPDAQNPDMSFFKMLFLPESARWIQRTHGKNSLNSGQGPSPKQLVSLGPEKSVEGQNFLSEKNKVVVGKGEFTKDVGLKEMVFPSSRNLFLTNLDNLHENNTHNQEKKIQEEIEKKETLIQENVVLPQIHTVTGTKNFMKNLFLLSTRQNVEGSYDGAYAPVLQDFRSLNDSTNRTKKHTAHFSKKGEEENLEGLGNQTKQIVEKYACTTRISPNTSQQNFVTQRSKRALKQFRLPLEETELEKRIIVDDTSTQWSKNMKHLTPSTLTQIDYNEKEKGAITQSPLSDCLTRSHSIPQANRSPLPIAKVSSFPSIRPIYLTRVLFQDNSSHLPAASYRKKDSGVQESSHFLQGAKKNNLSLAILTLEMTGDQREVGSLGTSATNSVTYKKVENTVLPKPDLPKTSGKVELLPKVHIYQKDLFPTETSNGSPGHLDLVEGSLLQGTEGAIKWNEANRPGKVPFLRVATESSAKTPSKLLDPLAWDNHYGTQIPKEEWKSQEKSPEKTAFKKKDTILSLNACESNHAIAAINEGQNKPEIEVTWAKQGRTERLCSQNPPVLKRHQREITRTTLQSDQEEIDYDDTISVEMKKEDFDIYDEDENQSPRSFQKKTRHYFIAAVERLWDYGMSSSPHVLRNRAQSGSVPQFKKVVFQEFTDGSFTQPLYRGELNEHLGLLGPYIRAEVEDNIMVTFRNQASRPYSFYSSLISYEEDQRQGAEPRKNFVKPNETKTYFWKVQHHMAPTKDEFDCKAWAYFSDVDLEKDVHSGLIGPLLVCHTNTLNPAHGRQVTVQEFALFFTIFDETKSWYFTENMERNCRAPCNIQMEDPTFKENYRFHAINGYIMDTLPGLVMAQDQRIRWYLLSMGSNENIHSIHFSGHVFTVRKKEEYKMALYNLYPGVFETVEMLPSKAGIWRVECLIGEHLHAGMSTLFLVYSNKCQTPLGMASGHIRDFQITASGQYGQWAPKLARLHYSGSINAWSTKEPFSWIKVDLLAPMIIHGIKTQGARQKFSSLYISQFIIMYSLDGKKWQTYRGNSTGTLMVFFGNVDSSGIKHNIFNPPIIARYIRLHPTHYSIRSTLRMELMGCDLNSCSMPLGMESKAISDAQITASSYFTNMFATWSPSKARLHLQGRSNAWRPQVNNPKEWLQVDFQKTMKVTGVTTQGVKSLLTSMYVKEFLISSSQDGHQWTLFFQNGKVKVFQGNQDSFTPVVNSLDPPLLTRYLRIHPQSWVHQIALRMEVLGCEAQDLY
- Sequence (P00451 20-1667 partner limits assumed): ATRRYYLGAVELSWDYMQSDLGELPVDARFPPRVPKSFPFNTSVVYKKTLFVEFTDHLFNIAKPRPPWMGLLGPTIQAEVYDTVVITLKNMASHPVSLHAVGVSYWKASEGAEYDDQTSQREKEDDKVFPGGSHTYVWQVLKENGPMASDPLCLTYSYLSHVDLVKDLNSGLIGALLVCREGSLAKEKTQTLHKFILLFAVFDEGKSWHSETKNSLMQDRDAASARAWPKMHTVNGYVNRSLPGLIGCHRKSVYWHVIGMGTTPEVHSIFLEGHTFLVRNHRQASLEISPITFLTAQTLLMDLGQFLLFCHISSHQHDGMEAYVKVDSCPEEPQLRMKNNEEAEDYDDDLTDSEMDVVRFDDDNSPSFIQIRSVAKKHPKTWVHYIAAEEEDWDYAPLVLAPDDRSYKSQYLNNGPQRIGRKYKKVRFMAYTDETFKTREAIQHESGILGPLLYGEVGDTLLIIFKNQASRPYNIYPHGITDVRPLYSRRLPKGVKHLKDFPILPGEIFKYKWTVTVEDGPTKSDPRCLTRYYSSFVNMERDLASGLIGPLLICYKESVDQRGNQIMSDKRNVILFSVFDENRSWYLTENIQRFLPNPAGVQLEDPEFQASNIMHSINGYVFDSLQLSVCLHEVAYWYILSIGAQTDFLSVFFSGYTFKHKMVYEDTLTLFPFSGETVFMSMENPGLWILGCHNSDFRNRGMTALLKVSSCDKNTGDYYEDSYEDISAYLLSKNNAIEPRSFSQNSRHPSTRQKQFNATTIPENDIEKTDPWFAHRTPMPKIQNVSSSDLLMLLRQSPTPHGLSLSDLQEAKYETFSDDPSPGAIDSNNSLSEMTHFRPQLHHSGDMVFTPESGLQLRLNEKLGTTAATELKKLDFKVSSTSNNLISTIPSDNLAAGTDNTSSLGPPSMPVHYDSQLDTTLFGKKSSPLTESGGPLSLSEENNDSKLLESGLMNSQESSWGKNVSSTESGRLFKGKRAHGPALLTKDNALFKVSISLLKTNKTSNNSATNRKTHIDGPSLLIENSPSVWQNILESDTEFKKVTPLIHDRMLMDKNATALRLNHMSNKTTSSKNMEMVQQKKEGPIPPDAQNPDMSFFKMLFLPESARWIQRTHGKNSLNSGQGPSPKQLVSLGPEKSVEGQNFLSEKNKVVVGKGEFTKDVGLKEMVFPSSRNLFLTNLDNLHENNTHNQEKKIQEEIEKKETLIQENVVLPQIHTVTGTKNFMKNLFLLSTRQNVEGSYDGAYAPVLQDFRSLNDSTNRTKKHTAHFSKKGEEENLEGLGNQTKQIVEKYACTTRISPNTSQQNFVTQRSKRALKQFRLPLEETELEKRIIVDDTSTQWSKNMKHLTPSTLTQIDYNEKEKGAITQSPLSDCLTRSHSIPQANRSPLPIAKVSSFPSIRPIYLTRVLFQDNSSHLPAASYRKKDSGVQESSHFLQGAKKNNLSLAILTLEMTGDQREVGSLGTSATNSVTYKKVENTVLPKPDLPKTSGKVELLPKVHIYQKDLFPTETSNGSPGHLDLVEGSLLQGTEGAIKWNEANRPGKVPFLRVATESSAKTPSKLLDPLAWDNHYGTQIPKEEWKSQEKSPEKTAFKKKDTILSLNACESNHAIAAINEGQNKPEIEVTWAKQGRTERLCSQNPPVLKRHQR
- Experiment: Binding of OPLS to FVIII by fluorescence spectroscopy
- Experimental conditions: fluorescence titration, FIG. 2; read-out: Dissociation constant (Kd) of OPLS binding to FVIII
pKd: −log10 of the molar value.
Readout type: pKd

INSERT INTO assay_data (molecule, numeric_value) VALUES
  ('N[C@@H](COP(=O)(O)O)C(=O)O [OPLS, O-Phospho-L-Serine]', 5.08);

Origin of the recorded values: patent US20220016241A1
